Values were extracted from patent US20220259593A1.

Tested on: K562 CRISPRi cells
Experiment: Constant region variant library pooled growth screen, K562
Type: cell-based, human
Conditions: sgRNA constant region variants; activity relative to the original, un-modified constant region cr995
Description: We calculated relative activities for each targeting sequence:constant region pair by normalizing its phenotype to that of the targeting sequence paired with the unmodified constant region, identifying 409 constant region variants that on average conferred intermediate activity (0.1-0.9, FIG. 5B). Ten variants selected for individual evaluation also mediated intermediate levels of mRNA knockdown (FIG. 6B). […]
Quick reference: Mean relative activity of the listed items.

| molecule | Mean relative activity |
| --- | --- |
| cr679 (nucleic acid, listed as DNA, chemistry not fully specified) guide: GTTTAAGAGCTAAGCTGGAAACAGCATATCAAGTTTAAATAAGGCTAGTCCGGTATCAACTTGAAAAAGTGGCACCGAGTCGGTGCT | 0.6292 |
| cr085 (nucleic acid, listed as DNA, chemistry not fully specified) guide: GTTTTTGAGCTAAGCTGGAAACAGCATAGCAAGTTTAAATAAGGCTAGTCCGTTATCAACTTGAAAAAGTGGCACCGAGTCGGTGCT | 0.02666 |
